Test system: E31 (patient-derived glioblastoma stem cells of proneural subtype)
Assay info: phenotypic distance (Euclidean, principal components) from DMSO controls (arbitrary units); higher = stronger morphological change
Condition details: 4.1 nM; exposure time: 72 h
Structures can show the parent of a compound that is named as a salt.
So I've got a bunch of compounds here, and I need their phenotypic distance values.
A bare number is all that is needed in reply.

Look up E31 data: phenotypic distance of CCC(=O)OCC(=O)[C@@]1(OC(=O)CC)[C@H](C)C[C@H]2[C@H]3[C@H]([C@@H](O)C[C@@]21C)[C@@]1(C)C=CC(=O)C=C1C[C@H]3Cl [Alclometasone dipropionate] , then report it.
2.71

Look up E31 data: phenotypic distance of N=c1ccn2c(n1)O[C@H]1[C@H](O)[C@@H](CO)O[C@H]12 [Ancitabine hydrochloride] , then report it.
1.4

Look up E31 data: phenotypic distance of CC(=O)O[C@H]1C[C@H](O[C@H]2[C@@H](O)C[C@H](O[C@H]3[C@@H](O)C[C@H](O[C@H]4CC[C@@]5(C)[C@H](CC[C@@H]6[C@@H]5C[C@@H](O)[C@]5(C)[C@@H](C7=CC(=O)OC7)CC[C@]65O)C4)O[C@@H]3C)O[C@@H]2C)O[C@H](C)[C@H]1O[C@@H]1O[C@H](CO)[C@@H](O)[C@H](O)[C@H]1O [Lanatoside C] , then report it.
2.01

Look up E31 data: phenotypic distance of `C[C@H](Cc1cc2c(c(C(N)=O)c1)N(CCCO)CC2)NCCOc1ccccc1OCC(F)(F)F` , then report it.
0.63

Look up E31 data: phenotypic distance of `CCCCCCNC(=O)n1cc(F)c(=O)[nH]c1=O` , then report it.
0.818

Look up E31 data: phenotypic distance of `C/C=C1\NC(=O)[C@H]2CSSCC/C=C/[C@H](CC(=O)N[C@H](C(C)C)C(=O)N2)OC(=O)[C@H](C(C)C)NC1=O` , then report it.
12.3

Look up E31 data: phenotypic distance of `CCc1c2c(nc3ccc(OC(=O)N4CCC(N5CCCCC5)CC4)cc13)-c1cc3c(c(=O)n1C2)COC(=O)[C@]3(O)CC` , then report it.
0.6

###

Test system: E28 (patient-derived glioblastoma stem cells of classical subtype)
Assay info: surviving fraction (nuclei count normalised to DMSO); higher = more cells surviving (less toxic)
Condition details: 333.3 nM; exposure time: 72 h
Where a name gives a salt, the structure may show the parent alone.
Class boundaries, taken from values of surviving fraction, are as follows: bottom end = under 0.9, midrange = from 0.9 up to 1, top end = 1 and over

Form field 'band' for `COc1ccc2c(c1)CC[C@@H]1[C@@H]2CC[C@]2(C)[C@@H](NCCCCCCN3C(=O)CCC3=O)CC[C@@H]12`
top end

Form field 'band' for `O=C1c2c(O)ccc(O)c2C(=O)c2c(NCCNCCO)ccc(NCCNCCO)c21`
bottom end

Form field 'band' for N=c1ccn2c(n1)O[C@H]1[C@H](O)[C@@H](CO)O[C@H]12 [Ancitabine hydrochloride]
bottom end

Form field 'band' for `CN(C(=O)CN(CCO)CC(=O)N(C)C(C)(C)Cc1ccccc1)C(C)(C)Cc1ccccc1`
top end

Form field 'band' for `CCCCCCNC(=O)n1cc(F)c(=O)[nH]c1=O`
top end

Form field 'band' for `Nc1ncnc2c1c(-c1ccc(Oc3ccccc3)cc1)cn2C1CCCC1`
top end

Form field 'band' for Clc1ccc(COC(Cn2ccnc2)c2ccc(Cl)cc2Cl)cc1 (configuration not stated) [Econazole nitrate]
top end

Form field 'band' for C[C@@H]1C[C@@H]([C@H](O)CC2CC(=O)NC(=O)C2)C(=O)[C@@H](C)C1 [Cycloheximide]
bottom end

Form field 'band' for `C[C@@H](Oc1cc(-c2cnn(C3CCNCC3)c2)cnc1N)c1c(Cl)ccc(F)c1Cl`
midrange

Form field 'band' for `CC(C)C[C@H](NC(=O)[C@H](CCc1ccccc1)NC(=O)CN1CCOCC1)C(=O)N[C@@H](Cc1ccccc1)C(=O)N[C@@H](CC(C)C)C(=O)[C@@]1(C)CO1`
bottom end

Form field 'band' for `NCCCP(=O)(O)O`
midrange

###

Tested on: E13 (patient-derived glioblastoma stem cells of classical subtype)
Assay info: phenotypic distance (Euclidean, principal components) from DMSO controls (arbitrary units); higher = stronger morphological change
Condition details: 333.3 nM; exposure time: 72 h
Structures can show the parent of a compound that is named as a salt.
Experimental endpoint: phenotypic distance
A bare number is all that is needed in reply.

Look up E13 data: phenotypic distance of CN1C(=O)CC(c2ccccc2)C1=O (centres undefined) [Phensuximide] , then report it.
0.274

Look up E13 data: phenotypic distance of CCC1=C[C@@H]2CN(C1)Cc1c([nH]c3ccccc13)[C@@](C(=O)OC)(c1cc3c(cc1OC)N(C)[C@H]1[C@@](O)(C(=O)OC)[C@H](OC(C)=O)[C@]4(CC)C=CCN5CC[C@]31[C@@H]54)C2 [Vinorelbine Tartrate] , then report it.
2.71

Look up E13 data: phenotypic distance of Cc1cc(C(C)(C)CC(C)(C)C)ccc1OCCOCC[N+](C)(C)Cc1ccccc1 [Methyl benzethonium chloride] , then report it.
1.46

Look up E13 data: phenotypic distance of `CCC(C)(C)C(=O)O[C@H]1C[C@@H](C)C=C2C=C[C@H](C)[C@H](CC[C@@H]3C[C@@H](O)CC(=O)O3)[C@H]21` , then report it.
2.27

Look up E13 data: phenotypic distance of Cc1cc(/C=C/c2ccc3cc(N(C)C)ccc3[n+]2C)c(C)n1-c1ccccc1 [Pyrvinium pamoate] , then report it.
4.15

Look up E13 data: phenotypic distance of `CNc1ccc2oc(C[C@H]3O[C@@]4(CC[C@H]3C)O[C@H]([C@H](C)C(=O)c3ccc[nH]3)[C@H](C)C[C@H]4C)nc2c1C(=O)O` , then report it.
6.79

Look up E13 data: phenotypic distance of `C=C(C)[C@H]1Cc2c(ccc3c2O[C@@H]2COc4cc(OC)c(OC)cc4[C@@H]2C3=O)O1` , then report it.
2.49

Look up E13 data: phenotypic distance of CNCCCC12CCC(c3ccccc31)c1ccccc12 [Maprotiline hydrochloride] , then report it.
0.608

Look up E13 data: phenotypic distance of C[C@@H]1C[C@@H]([C@H](O)CC2CC(=O)NC(=O)C2)C(=O)[C@@H](C)C1 [Cycloheximide] , then report it.
3.18

###

Tested on: E34 (patient-derived glioblastoma stem cells of proneural subtype)
Assay info: phenotypic distance (Euclidean, principal components) from DMSO controls (arbitrary units); higher = stronger morphological change
Condition details: 1000 nM; exposure time: 72 h
Structures can show the parent of a compound that is named as a salt.
So I've got a bunch of compounds here, and I need their phenotypic distance values.
A bare number is all that is needed in reply.

For Cc1cc(Nc2cc(CN3CCOCC3)c3nc(C)c(Cc4ccc(Cl)cc4F)n3n2)n[nH]1 [Gandotinib] , write its phenotypic distance.
7.41

For COc1cccc2c1C(=O)c1c(O)c3c(c(O)c1C2=O)C[C@@](O)(C(C)=O)C[C@@H]3O[C@H]1C[C@H](N)[C@H](O)[C@H](C)O1 [Daunorubicin hydrochloride] , write its phenotypic distance.
4.23

For CC(=O)CC(c1ccc([N+](=O)[O-])cc1)c1c(O)c2ccccc2oc1=O (stereo not given) [Acenocoumarol] , write its phenotypic distance.
0.954

For CC[C@]1(O)C[C@@H]2CN(CCc3c([nH]c4ccccc34)[C@@](C(=O)OC)(c3cc4c(cc3OC)N(C)[C@H]3[C@@](O)(C(=O)OC)[C@H](OC(C)=O)[C@]5(CC)C=CCN6CC[C@]43[C@@H]65)C2)C1 [Vinblastine sulfate] , write its phenotypic distance.
8.95

For C[C@@H]1C[C@@H]([C@H](O)CC2CC(=O)NC(=O)C2)C(=O)[C@@H](C)C1 [Cycloheximide] , write its phenotypic distance.
2.05

###

System: FT3469 (normal neural stem cell line)
Assay info: surviving fraction (nuclei count normalised to DMSO); higher = more cells surviving (less toxic)
Condition details: 1000 nM; exposure time: 72 h
Where a name gives a salt, the structure may show the parent alone.
So I've got a bunch of compounds here, and I need their surviving fraction values.
A bare number is all that is needed in reply.

For `C[C@H](Cc1cc2c(c(C(N)=O)c1)N(CCCO)CC2)NCCOc1ccccc1OCC(F)(F)F` , write its surviving fraction.
0.815

For CCCCCC[C@H]1C(=O)O[C@H](C)[C@H](NC(=O)c2cccc(NC=O)c2O)C(=O)O[C@@H](C)[C@@H]1OC(=O)CC(C)C [Antimycin A] , write its surviving fraction.
0.929

For O=C(Nc1ccc([N+](=O)[O-])cc1Cl)c1cc(Cl)ccc1O [Niclosamide] , write its surviving fraction.
0.262

For Cc1c(-c2ccc(-c3ccccc3F)cc2)nc2ccc(F)cc2c1C(=O)O [Brequinar sodium salt hydrate] , write its surviving fraction.
0.742

For COc1ccc(/C=C\c2cc(OC)c(OC)c(OC)c2)cc1OP(=O)(O)O [Fosbretabulin Disodium] , write its surviving fraction.
0.503

For O=C(/C=C\n1cnc(-c2cc(C(F)(F)F)cc(C(F)(F)F)c2)n1)NNc1cnccn1 [Selinexor] , write its surviving fraction.
0.556

For `CN1C(=O)OC(C)(C)C1=O` , write its surviving fraction.
1.03

For `CO[C@H]1C(=O)[C@]2(C)[C@@H](OC)C[C@H]3OC[C@@]3(OC(C)=O)[C@H]2[C@H](OC(=O)c2ccccc2)[C@]2(O)C[C@H](OC(=O)[C@H](O)[C@@H](NC(=O)OC(C)(C)C)c3ccccc3)C(C)=C1C2(C)C` , write its surviving fraction.
0.406

For `COc1ccc([C@@H]2CC(=O)c3c(O)cc(O[C@@H]4O[C@H](CO[C@@H]5O[C@@H](C)[C@H](O)[C@@H](O)[C@H]5O)[C@@H](O)[C@H](O)[C@H]4O)cc3O2)cc1O` , write its surviving fraction.
1.01
